Would you mind telling me the reported growth of each entry?
- System: HCC-2998 colon
- assayRemarks: NCI-60 one-dose screen, 48 h (100 = growth as untreated, 0 = no growth, -100 = all killed)
- runConditions: 10 µM unless noted
This is part of a sample that, as a whole, favours compounds with a hit. Of some 83,000 tested, about 20% had one in any assay. Activity calls are given as the source filed them. The calls were made as follows: active = growth percent below 10; inactive = the rest.

Req: Query growth on HCC-2998 colon for C=C1C(=O)O[C@H]2[C@H]1CC/C(Cn1cc(CNCCc3c[nH]c4ccccc34)nn1)=C\CC[C@@]1(C)O[C@@H]21
Resp: 97.1% (inactive)

Req: Query growth on HCC-2998 colon for NC(=S)c1csc(CCNC(=O)c2ccccc2)n1
Resp: 103% (inactive)

Req: Query growth on HCC-2998 colon for Clc1ccc2c(NCCCN3CCN(c4nc(-n5ccnc5)nc5ccccc45)CC3)ccnc2c1
Resp: 95.7% (inactive)

Continuing:
Req: Query growth on HCC-2998 colon for C=C1C(=O)O[C@H]2[C@H]1CC/C(COC(=O)/C=C/C(=O)NCc1ccc(Cn3c(=O)sn(-c4ccccc4)c3=O)cc1)=C\CC[C@@]1(C)O[C@@H]21
Resp: 54.4% (inactive)

###

Would you mind telling me the reported growth of each entry?
- Tested on: PC-3 prostate
- assayRemarks: NCI-60 one-dose screen, 48 h (100 = growth as untreated, 0 = no growth, -100 = all killed)
- runConditions: 10 µM unless noted
Compounds without any hit were thinned out: in the full panel of roughly 83,000, 20% have a hit. Calls of active or inactive are those of the source. Rule for the calls: active = growth percent below 10; inactive = the rest.

Would you please look over these solved cases?
Req: Requested read-out: growth. Entry: Nc1ccc(S(=O)(=O)Nc2ccsc2-c2nc(-c3ccccc3)no2)cc1
Resp: 53.1% (inactive)

Req: Requested read-out: growth. Entry: CCCc1nc2ccccn2c1Nc1ccc(C(=O)NO)cc1
Resp: 83% (inactive)

Req: Requested read-out: growth. Entry: O=C(/C=C/C12c3ccccc3C(c3ccccc31)C1C(=O)N(c3ccccc3)C(=O)C12)c1ccc(Cl)cc1 (centres undefined)
Resp: 22.3% (inactive)

Let's switch to this compound now.
Req: Requested read-out: growth. Entry: Cn1cc(Nc2nccc(-c3ccc(N4CCCC4)c(C#N)c3)n2)cn1
Resp: 43% (inactive)

###

- Tested on: MALME-3M melanoma
- assayRemarks: NCI-60 one-dose screen, 48 h
- runConditions: 10 µM unless noted
Compounds without any hit were thinned out: in the full panel of roughly 83,000, 20% have a hit. Activity calls are given as the source filed them. How the source made its calls: active means growth percent below 10; inactive means the rest.
Please answer using one outcome listed in class 1 for active, class 0 for inactive

Req: Outcome? Cc1cn(C2CCCCC2)c(=O)[nH]c1=O
Resp: class 0

###

- System: SN12C renal
- assayRemarks: NCI-60 one-dose screen, 48 h
- runConditions: 10 µM unless noted
This is part of a sample that, as a whole, favours compounds with a hit. Of some 83,000 tested, about 20% had one in any assay. Active and inactive are the calls of the source. The calls were made as follows: active = growth percent below 10; inactive = the rest.
Please answer using one outcome listed in active, inactive

Reference set (5 entries):
Req: Outcome? CN1C[C@@H](c2ccc(Cl)cc2)[C@]2(NC(=S)N(c3ccc(F)c(Cl)c3)C2=O)[C@@]12C(=O)NC1C=CC(Cl)=C[C@H]12 (stereo partly specified)
Resp: active

Req: Outcome? CC(=O)c1cc2c(o1)C(=O)c1ccccc1C2=O
Resp: active

Req: Outcome? COc1ccc(C2CC(c3ccccc3)=NN2c2nc(C)c(C(C)=O)s2)cc1 (stereo unspecified)
Resp: inactive

Req: Outcome? CC(=O)NCC(=O)Nc1ccc(-c2nnc3ccccn23)nc1.CC(=O)NCC(=O)Nc1ccc(-c2nnc3ccccn23)nc1.[Pt+2]
Resp: inactive

Req: Outcome? C[N+](C)(C)CCOC(OCC[N+](C)(C)C)(c1ccccc1)c1ccccc1
Resp: inactive

Please turn your attention to the following entry.
Req: Outcome? O=[N+]([O-])c1cccc(/C=C/c2ccccn2)c1
Resp: inactive

###

- Tested on: CCRF-CEM leukemia
- assayRemarks: NCI-60 one-dose screen, 48 h (100 = growth as untreated, 0 = no growth, -100 = all killed)
- runConditions: 10 µM unless noted
This is part of a sample that, as a whole, favours compounds with a hit. Of some 83,000 tested, about 20% had one in any assay. Active and inactive are the calls of the source. The calls were made as follows: active = growth percent below 10; inactive = the rest.
reportedMetric: growth

Req: Requested read-out: growth. Entry: Nc1ccc(-c2cc3c(Nc4ccc(OCc5cccc(F)c5)c(Cl)c4)ncnc3s2)cc1
Resp: 24% (inactive)

Batch request: growth for each of the following compounds.
1. CCN(CC)N=Nc1nn(C(=O)Nc2ccc(Cc3ccccc3)cc2)c2ccc(Cl)cc12
2. CCO/C=N/C1=C(C#N)C(c2ccc(OC)cc2)c2c(c3ccccc3n(C)c2=O)O1 (configuration not stated)
3. Cc1nc(-c2ccccc2)cc2c(O)c(C(=O)N/N=C/c3ccc(N(C)C)cc3)[nH]c(=O)c12

Resp:
1: 62.5% (inactive); 2: 100% (inactive); 3: 96.7% (inactive)

Batch request: growth for each of the following compounds.
1. COc1ccc(Oc2nc(Nc3ccc(N4CCCCC4)nc3)ncc2NC(=O)c2cc(OC)cc(OC)c2)cc1
2. CCc1cc(Cc2cc(CC)cc(C(C)(C)C)c2O)c(O)c(C(C)(C)C)c1

Resp:
1: 20% (inactive); 2: 12.9% (inactive)

Batch request: growth for each of the following compounds.
1. CNC1(C#N)CCN(Cc2ccccc2)CC1
2. CN(C)CCCCNc1ccc(NCCCCN(C)C)c2c1C(=O)c1c(O)ccc(O)c1C2=O
3. C=C1C(=O)O[C@H]2[C@H]1CC/C(Cn1cc(CNCCc3c[nH]c4ccc(Cl)cc34)nn1)=C\CC[C@@]1(C)O[C@@H]21
4. CCCCOc1ccc(NC(=O)n2nc(N=NN(C)C)c3ccc(Cl)cc32)cc1
5. CO/C(=C1/NC(=O)C(Cc2ccc(O)c(Br)c2)N(C)C(=O)C(C)NC(=O)CCC/C=C(\C)CCC(C)OC1=O)c1ccccc1 (configuration not stated)
6. [2H]c1nc(Nc2ncc(F)c(-c3cc(F)c4nc(C)n(C(C)C)c4c3)n2)c([2H])c([2H])c1CN1CCN(C([2H])([2H])C([2H])([2H])[2H])CC1
7. COc1ccc(-c2cc(-c3cc(OC)ccc3OC)[nH]c(=O)c2C#N)cc1
8. Cc1nc(Nc2ccc(NC(=S)Nc3ccccc3)cc2)nc2nc(SCc3ccccc3)[nH]c(=O)c12

Resp:
108% (inactive)
-28.5% (active)
-29.6% (active)
88.9% (inactive)
0.832% (active)
35.2% (inactive)
76.9% (inactive)
92.3% (inactive)

Batch request: growth for each of the following compounds.
1. COc1cccc(/C=C2\COc3ccc(O)cc3C2=O)c1OC
2. CCOc1ccc(S(=O)(=O)c2ccc(C)cc2)c2c1no[n+]2[O-]
3. CCCCNC(=O)c1cc(NCc2cc(O)ccc2O)ccc1O
4. CN(C)CCOC(=O)Nc1ccc(Cl)cc1
5. COc1cc(/C=C/C(=O)c2cccc(-n3cc(-c4ccc(Cl)cc4)[nH]c3=O)c2)cc(OC)c1OC

Resp:
1: 2.69% (active); 2: 75.7% (inactive); 3: 8.3% (active); 4: 80.5% (inactive); 5: 4.15% (active)

Batch request: growth for each of the following compounds.
1. NC(N)=N/N=C/CO
2. COc1cc(CNC(=O)/C=C/C=C/c2ccc3c(c2)OCO3)ccc1OCc1cn(-c2ccc(Cl)c(Cl)c2)nn1
3. COc1ccc(-c2cc(-c3cc(OC)ccc3O)[nH]c(=O)c2C#N)cc1
4. COc1cc2oc(-c3cccc(C(=O)Nc4ccc(C)cc4)c3)cc(=O)c2c(OC)c1OC
5. C/C(=N\NC(N)=S)c1nc2ccc(Cl)cc2[nH]1
6. O=C(Nc1ccc(N2CCCCC2)c(Cl)c1)c1ccc(Br)o1
7. CN1CCN(CCCOc2ccc3nc(Nc4cc(Cl)cc(Cl)c4)ccc3c2)CC1

Resp:
1: 93.8% (inactive); 2: 57.7% (inactive); 3: 46.3% (inactive); 4: 34.7% (inactive); 5: 32.8% (inactive); 6: 74.9% (inactive); 7: -52.5% (active)

Batch request: growth for each of the following compounds.
1. c1ccc2c(c1)ncn2-c1nc2ccccc2n2c1nc1ccccc12
2. CCNCCNc1cc(-c2cccc(C(F)(F)F)c2)c(C#N)c2nc3ccccc3n12
3. N#C/C(=C\c1ccc(Br)cc1)n1nnc2ccccc21
4. Cc1nc(Nc2ccc(S(=O)(=O)Nc3cc(C)on3)cc2)c2ccccc2n1
5. O=C(NCCOCCOCCNc1cccc2c1C(=O)N(C1CCCNC1=O)C2=O)c1cc2c(o1)C(=O)c1ccccc1C2=O (configuration not stated)
6. Clc1ccc(/C=C/c2nc(Nc3ccc(Cl)cc3)c3ccccc3n2)cc1

Resp:
["80.6% (inactive)", "-12.3% (active)", "8.29% (active)", "103% (inactive)", "14.9% (inactive)", "102% (inactive)"]

Batch request: growth for each of the following compounds.
1. CCNCCNc1cc(-c2ccc(Cl)cc2)c(C#N)c2nc3ccccc3n12
2. COc1ccc(OC)c(/C=C2\COc3ccc(O)c(O)c3C2=O)c1
3. CN(C)c1ccc(/C=C/c2c(F)cccc2F)cc1
4. CC1(C)C(=O)/C(=C\c2cccnc2)C[C@]2(C)[C@H]3CC=C4[C@@H]5C[C@@](C)(C(=O)O)CC[C@]5(C)CC[C@@]4(C)[C@]3(C)CC[C@@H]12
5. N#C/C=C(\c1ccc([N+](=O)[O-])cc1)n1nnc2cc(Cl)c(Cl)cc21

Resp:
-21.3% (active)
-0.701% (active)
101% (inactive)
81.8% (inactive)
9.49% (active)
